# Target: C3b (Homo sapiens)
# Construct: the α’NT, MG6^α−8, anchor, and C-terminal complement (CTC) domains of the α-chain that are all shared between C3c and C3b; purchased Complement Technology (Tyler, TX, USA)
# Assay Explanation: SPR kinetic binding studies on immobilized C3b
# Assay Setup: pH 7.4, read-out: ka, Dataset 2
Bridge positions count the residues as written; N and C are the ends. Square brackets hold non-standard residues; d marks the D form. Peptide text beside a SMILES is read from it. Trp(1-Me) = Cn1cc(C[C@H](N)C(=O)O)c2ccccc21; NMeI = CC[C@H](C)[C@H](NC)C(=O)O; Sar = CNCC(=O)O
Experimental Endpoint: kon (M⁻¹ s⁻¹)
Give the value, in units of M⁻¹ s⁻¹, as a plain number.

# Compound, Target, Unit Text, kon
measured = [
    ("CC[C@H](C)[C@H](NC(=O)[C@H](N)Cc1ccc(O)cc1)C(=O)N[C@H]1CSSC[C@@H](C(=O)N(C)[C@H](C(N)=O)[C@@H](C)CC)NC(=O)[C@H](CCCNC(=N)N)NC(=O)[C@H](Cc2c[nH]cn2)NC(=O)[C@H](C)NC(=O)CN(C)C(=O)[C@H](Cc2c[nH]c3ccccc23)NC(=O)[C@H](CCC(=O)O)NC(=O)[C@H](CCC(N)=O)NC(=O)[C@H](Cc2cn(C)c3ccccc23)NC(=O)[C@H](C(C)C)NC1=O [Cp40 D7E] (H-[dY]ICV[Trp(1-Me)]QEW[Sar]AHRC[NMeI]-NH2; disulfide 3-13)", "C3b (Homo sapiens)", "M⁻¹ s⁻¹", 650000),
]

Request: # returns recorded kon (system: C3b (Homo sapiens)) for CC[C@H](C)[C@H](NC(=O)[C@H](N)Cc1ccc(O)cc1)C(=O)N[C@H]1CSSC[C@@H](C(=O)N(C)[C@H](C(N)=O)[C@@H](C)CC)NC(=O)[C@H](CCCNC(=N)N)NC(=O)[C@H](Cc2c[nH]cn2)NC(=O)[C@H](C)NC(=O)CN(C)C(=O)[C@H](Cc2c[nH]c3ccccc23)NC(=O)[C@H](CO)NC(=O)[C@H](CCC(N)=O)NC(=O)[C@H](Cc2cn(C)c3ccccc23)NC(=O)[C@H](C(C)C)NC1=O [Cp40 D7S] (H-[dY]ICV[Trp(1-Me)]QSW[Sar]AHRC[NMeI]-NH2; disulfide 3-13)
Result: 50000

----------
// kon lookup, one value per entry
# Target: C3b (Homo sapiens, UniProt P01024)
# Construct: the α’NT, MG6^α−8, anchor, and C-terminal complement (CTC) domains of the α-chain that are all shared between C3c and C3b; purchased Complement Technology (Tyler, TX, USA)
# Sequence (P01024 23-667 limits assumed): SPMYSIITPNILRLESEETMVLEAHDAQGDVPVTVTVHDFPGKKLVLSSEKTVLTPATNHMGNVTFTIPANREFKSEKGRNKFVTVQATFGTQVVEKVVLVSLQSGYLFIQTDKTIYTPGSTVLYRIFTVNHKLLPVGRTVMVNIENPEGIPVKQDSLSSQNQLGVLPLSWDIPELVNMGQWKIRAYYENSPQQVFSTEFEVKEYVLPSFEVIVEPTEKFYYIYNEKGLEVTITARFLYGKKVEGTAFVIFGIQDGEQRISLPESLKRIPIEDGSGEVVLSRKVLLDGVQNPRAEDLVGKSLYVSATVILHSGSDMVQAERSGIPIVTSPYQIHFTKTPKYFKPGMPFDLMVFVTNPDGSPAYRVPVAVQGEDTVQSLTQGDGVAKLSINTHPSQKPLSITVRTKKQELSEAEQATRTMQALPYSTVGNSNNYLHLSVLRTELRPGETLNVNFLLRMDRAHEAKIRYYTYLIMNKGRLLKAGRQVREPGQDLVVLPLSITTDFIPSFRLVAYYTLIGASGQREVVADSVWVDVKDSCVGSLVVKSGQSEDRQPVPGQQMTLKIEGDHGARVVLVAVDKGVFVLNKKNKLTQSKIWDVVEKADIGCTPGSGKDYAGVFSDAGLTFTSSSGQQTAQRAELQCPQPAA
# Sequence (P01024 749-1663 limits assumed): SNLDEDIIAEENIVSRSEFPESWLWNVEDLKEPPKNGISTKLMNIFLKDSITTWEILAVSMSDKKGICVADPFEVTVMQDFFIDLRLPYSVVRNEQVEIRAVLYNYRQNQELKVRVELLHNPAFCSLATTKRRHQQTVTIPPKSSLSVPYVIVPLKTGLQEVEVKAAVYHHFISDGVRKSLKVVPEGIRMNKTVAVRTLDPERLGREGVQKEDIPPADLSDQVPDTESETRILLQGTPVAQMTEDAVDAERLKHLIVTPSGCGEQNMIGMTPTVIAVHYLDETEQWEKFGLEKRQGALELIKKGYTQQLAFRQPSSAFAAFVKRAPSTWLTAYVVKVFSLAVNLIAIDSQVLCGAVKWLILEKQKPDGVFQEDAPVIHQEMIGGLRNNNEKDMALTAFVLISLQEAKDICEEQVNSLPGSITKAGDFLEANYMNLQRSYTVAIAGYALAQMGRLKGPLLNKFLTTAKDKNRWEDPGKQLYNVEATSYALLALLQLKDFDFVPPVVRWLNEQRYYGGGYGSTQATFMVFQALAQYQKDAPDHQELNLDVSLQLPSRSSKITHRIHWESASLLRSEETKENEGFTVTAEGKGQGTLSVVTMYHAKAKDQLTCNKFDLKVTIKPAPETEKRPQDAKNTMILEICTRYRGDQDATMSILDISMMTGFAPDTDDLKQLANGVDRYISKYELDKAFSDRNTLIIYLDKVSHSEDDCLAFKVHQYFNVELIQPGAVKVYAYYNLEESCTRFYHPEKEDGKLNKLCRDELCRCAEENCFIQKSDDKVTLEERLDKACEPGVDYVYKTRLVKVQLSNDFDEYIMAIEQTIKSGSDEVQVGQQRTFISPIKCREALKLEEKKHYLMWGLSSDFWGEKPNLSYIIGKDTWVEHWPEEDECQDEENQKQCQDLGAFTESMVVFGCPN
# Assay Explanation: SPR kinetic binding studies on immobilized C3b
# Assay Setup: pH 7.4, read-out: ka
Bridge positions count the residues as written; N and C are the ends. Square brackets hold non-standard residues; d marks the D form. Peptide text beside a SMILES is read from it. Trp(1-Me) = Cn1cc(C[C@H](N)C(=O)O)c2ccccc21; NMeI = CC[C@H](C)[C@H](NC)C(=O)O; Sar = CNCC(=O)O
Give just the numeric value; M⁻¹ s⁻¹ need not be written.

Examples with answers:
# Compound, Experimental Endpoint, Unit Text, Readout Value
data = [
    ("CC[C@H](C)[C@H](NC(C)=O)C(=O)N[C@H]1CSSC[C@@H](C(=O)N(C)[C@H](C(N)=O)[C@@H](C)CC)NC(=O)[C@H](CCCNC(=N)N)NC(=O)[C@H](Cc2c[nH]cn2)NC(=O)[C@H](C)NC(=O)CN(C)C(=O)[C@H](Cc2c[nH]c3ccccc23)NC(=O)[C@H](CC(=O)O)NC(=O)[C@H](CCC(N)=O)NC(=O)[C@H](Cc2cn(C)c3ccccc23)NC(=O)[C@H](C(C)C)NC1=O [Cp20, reference compound]", "kon", "M⁻¹ s⁻¹", "1.3e+06"),
    ("CC[C@H](C)[C@H](NC(=O)[C@H](C)N)C(=O)N[C@H]1CSSC[C@@H](C(=O)N(C)[C@H](C(N)=O)[C@@H](C)CC)NC(=O)[C@H](CCCNC(=N)N)NC(=O)[C@H](Cc2c[nH]cn2)NC(=O)[C@H](C)NC(=O)CN(C)C(=O)[C@H](Cc2c[nH]c3ccccc23)NC(=O)[C@H](CC(=O)O)NC(=O)[C@H](CCC(N)=O)NC(=O)[C@H](Cc2cn(C)c3ccccc23)NC(=O)[C@H](C(C)C)NC1=O [Cp40 y1A] (H-AICV[Trp(1-Me)]QDW[Sar]AHRC[NMeI]-NH2; disulfide 3-13)", "kon", "M⁻¹ s⁻¹", 400000),
    ("CC[C@H](C)[C@H](NC(=O)[C@@H](C)N)C(=O)N[C@H]1CSSC[C@@H](C(=O)N(C)[C@H](C(N)=O)[C@@H](C)CC)NC(=O)[C@H](CCCNC(=N)N)NC(=O)[C@H](Cc2c[nH]cn2)NC(=O)[C@H](C)NC(=O)CN(C)C(=O)[C@H](Cc2c[nH]c3ccccc23)NC(=O)[C@H](CC(=O)O)NC(=O)[C@H](CCC(N)=O)NC(=O)[C@H](Cc2cn(C)c3ccccc23)NC(=O)[C@H](C(C)C)NC1=O [Cp40 y1a]", "kon", "M⁻¹ s⁻¹", 800000),
    ("CC[C@H](C)[C@H](NC(=O)[C@H](N)Cc1ccc(O)cc1)C(=O)N[C@H]1CSSC[C@@H](C(N)=O)NC(=O)[C@H](CCCNC(=N)N)NC(=O)[C@H](Cc2c[nH]cn2)NC(=O)[C@H](C)NC(=O)CN(C)C(=O)[C@H](Cc2c[nH]c3ccccc23)NC(=O)[C@H](CC(=O)O)NC(=O)[C@H](CCC(N)=O)NC(=O)[C@H](Cc2cn(C)c3ccccc23)NC(=O)[C@H](C(C)C)NC1=O [Cp40 ΔmI14] (H-[dY]ICV[Trp(1-Me)]QDW[Sar]AHRC-NH2; disulfide 3-13)", "kon", "M⁻¹ s⁻¹", "1.5e+06"),
]

Now for another entry.
Request: Item CC[C@H](C)[C@H](NC(=O)[C@H](N)Cc1ccc(O)cc1)C(=O)N[C@H]1CSSC[C@@H](C(=O)N(C)[C@H](C(N)=O)[C@@H](C)CC)NC(=O)[C@H](CCCNC(=N)N)NC(=O)[C@H](Cc2c[nH]cn2)NC(=O)[C@H](C)NC(=O)CN(C)C(=O)[C@H](Cc2c[nH]c3ccccc23)NC(=O)[C@H](CCC(=O)O)NC(=O)[C@H](CCC(N)=O)NC(=O)[C@H](Cc2cn(C)c3ccccc23)NC(=O)[C@H](C(C)C)NC1=O [Cp40 D7E] (H-[dY]ICV[Trp(1-Me)]QEW[Sar]AHRC[NMeI]-NH2; disulfide 3-13) has what recorded kon?
Result: 900000

FYI, the data here is from paper PMC9488889.
